These measurements were taken from ChEMBL document CHEMBL1136688.

- tested on: UniProt:Q9Y5N1
- Sequence (Q9Y5N1 whole entry): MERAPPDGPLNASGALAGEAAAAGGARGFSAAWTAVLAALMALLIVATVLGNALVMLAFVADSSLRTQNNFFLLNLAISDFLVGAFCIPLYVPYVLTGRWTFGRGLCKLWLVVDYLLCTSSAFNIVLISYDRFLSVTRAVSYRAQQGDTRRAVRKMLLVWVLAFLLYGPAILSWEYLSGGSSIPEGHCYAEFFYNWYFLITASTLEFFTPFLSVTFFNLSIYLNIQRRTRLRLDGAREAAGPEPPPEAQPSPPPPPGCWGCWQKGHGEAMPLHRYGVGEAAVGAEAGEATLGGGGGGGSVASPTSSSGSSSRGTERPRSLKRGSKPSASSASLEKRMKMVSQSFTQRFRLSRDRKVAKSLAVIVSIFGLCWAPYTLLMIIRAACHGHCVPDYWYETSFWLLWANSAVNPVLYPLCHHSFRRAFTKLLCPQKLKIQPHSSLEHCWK
- assay protocol: Binding affinity for human recombinant H3 receptor
property measured: Ki (nM)
Field format: number, assumed nM, no unit text.

Illustrative cases are given below, each with its answer.
| smiles string | value units | Ki |
| --- | --- | --- |
| CCN(CC)C(=O)c1ccc(-c2ccc(OCCCN3CC[C@H](O)C3)cc2)cc1 | nM | 8.13 |
| CCN(CC)C(=O)c1ccc(-c2ccc(OCCCN3CC[C@H](N(C)C)C3)cc2)cc1 | nM | 6.92 |

Query: Give the reported Ki for C[C@H]1CC[C@H](C)N1C(=O)c1ccc(-c2ccc(OCCCN3CC[C@H](O)C3)cc2)cc1 (system: UniProt:Q9Y5N1).
Reply: 11.2
